I'd be grateful if you could share measured activity change, negative = inhibition for these entries.
# runDescription: qHTS Assay for Lipid Storage Modulators (AID 1519); further: on the % scale 0 is the no-effect control and ±100 the full control effect
# testContext: Drosophila S3 cells, BODIPY lipid droplet/cell ratio, laser cytometry; at 25.7 µM (top of the series); cells loaded with oleic acid
Results filed as inconclusive are left out.
State the answer as a number, implicitly in %.

Request the reported activity change, negative = inhibition associated with CCCCCN(CCCCC)C(=O)[C@H](CCC(=O)O)NC(=O)c1ccc(Cl)c(Cl)c1 -1.39

Request the reported activity change, negative = inhibition associated with C[C@@H]1CCC[C@H](C)N1NC(=O)c1ccc(Cl)c(S(N)(=O)=O)c1 1.49

Request the reported activity change, negative = inhibition associated with O[C@@](CCN1CCCCC1)(c1ccccc1)C1CCCCC1 -1.35

Request the reported activity change, negative = inhibition associated with CCCN[C@@H](C)C(=O)Nc1c(C)csc1C(=O)OC -2.12

Request the reported activity change, negative = inhibition associated with COc1ccc([C@H]2Sc3ccccc3N(CCN(C)C)C(=O)[C@H]2OC(C)=O)cc1 -1.07

Request the reported activity change, negative = inhibition associated with CC[C@H](NC(C)C)[C@H](O)c1ccc(O)c(O)c1 -0.896

Request the reported activity change, negative = inhibition associated with O=C(O)CNC(=O)[C@@H](CS)Cc1ccccc1 -1.09

Request the reported activity change, negative = inhibition associated with CC(=O)[C@@H]1CC[C@@H]2[C@@H]3CCC4=CC(=O)CC[C@@]4(C)[C@H]3CC[C@]21C -4.74

Request the reported activity change, negative = inhibition associated with Nc1nc2n[nH]nc2c(=O)[nH]1 -1.04

Request the reported activity change, negative = inhibition associated with Cc1cc(/C=C\c2ccc3cc(N(C)C)ccc3[n+]2C)c(C)n1-c1ccccc1 -5.56

Request the reported activity change, negative = inhibition associated with C[C@@]12CCC(=O)C=C1CC[C@H]1[C@H]3CC[C@](O)(C(=O)CO)[C@]3(C)CC(=O)[C@@H]12 -1.59

Request the reported activity change, negative = inhibition associated with CN(C)CCO[C@](C)(c1ccccc1)c1ccccn1 0.849

Request the reported activity change, negative = inhibition associated with Cc1[nH]ccc2c1[nH]c1cc(=O)ccc12 -0.514

Request the reported activity change, negative = inhibition associated with CC[C@]1(C)CC(=O)NC1=O 0.986

Request the reported activity change, negative = inhibition associated with COc1ccc(C[C@@H]2c3cc(OC)c(OC)cc3CC[N@+]2(C)CCC(=O)OCCCCCOC(=O)CC[N@@+]2(C)CCc3cc(OC)c(OC)cc3[C@H]2Cc2ccc(OC)c(OC)c2)cc1OC -3.87

Request the reported activity change, negative = inhibition associated with CC(C)(C)NC[C@H](O)c1cc(O)cc(O)c1 -2.66

Request the reported activity change, negative = inhibition associated with C[C@@H]1c2cccc(O)c2C(O)=C2C(=O)[C@@]3(O)C(O)=C(C(N)=O)C(=O)[C@@H](N(C)C)[C@@H]3[C@@H](O)[C@@H]21 -1.5

Request the reported activity change, negative = inhibition associated with CC[C@@]12CCCN3CCc4c(n(c5ccccc45)C(=O)C1)[C@H]32 -0.21

Request the reported activity change, negative = inhibition associated with O=C(C1CCCCC1)N1CC(=O)N2CCc3ccccc3[C@@H]2C1 1.99

Request the reported activity change, negative = inhibition associated with CO[C@]1(NC(=O)CSCC#N)C(=O)N2C(C(=O)O)=C(CSc3nnnn3C)CS[C@H]21 -1.05

Request the reported activity change, negative = inhibition associated with CN(N=O)C(=O)N[C@H]1[C@@H](O)[C@H](O)[C@H](CO)O[C@@H]1O -1.88
